Cited source for all entries: patent US20220056018A1

System: HS578T
protocol.text: Cancer cell growth inhibition
Assay type: cell-based
condition.description: Homo sapiens, Hs-578T; HS578T (breast), 72 hr treatment
pIC50: −log10 of the molar value.
readout.kind: pIC50

Previously resolved entries follow.
[[record]]
structure_smiles = "CC(C)(O)Cc1cc(-c2csc(-c3ccc(NS(C)(=O)=O)cc3Cl)c2)ccn1"
tested_target = "HS578T"
reported_measurement = "< 5.00"

[[record]]
structure_smiles = "CS(=O)(=O)Nc1ccc(-c2cc(-c3ccnc4c3OCCO4)cs2)c(Cl)c1"
tested_target = "HS578T"
reported_measurement = "< 5.00"


Q) Request: pIC50, test system HS578T, entry CC(C)(CO)c1cc(-c2csc(-c3ccc(NS(C)(=O)=O)cc3Cl)c2)ccn1
A) < 5.00
